Listed next: entries and their corresponding pIC50.
- Test system: human lung cancer strain NCI-H441;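 further: cell proliferation inhibition after four days measured by CellTiter-Glo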
- Reported Conditions: read-out: NCI-H441 cell proliferation inhibitory activity, 50% proliferation inhibitory concentration (IC50 value); NCI-H441, four days, CellTiter-Glo
Here pIC50 is given on a logarithmic scale as minus log10 of the concentration in mol/L.

Example cases with answers are listed next.
# Molecule, System, pIC50
records = [
    ("CCC[C@H]1C(=O)N[C@@H]([C@@H](C)CC)C(=O)N(C2CC2)CC(=O)N(C)[C@H]2C/C=C\\CCN(C2=O)[C@@H](Cc2ccc(C)cc2)C(=O)N(C)CC(=O)N[C@@H](CCc2ccc(C(F)(F)F)c(OC)c2)C(=O)N2C[C@H](OCC)C[C@H]2C(=O)N(C)C2(CCC2)C(=O)N(C)[C@@H](C2CCCC2)C(=O)N(C)[C@H](C(=O)N2CCCC2)CC(=O)N1C [PP3098]", "human lung cancer strain NCI-H441", 8.33),
    ("CCCO[C@@H]1C[C@H]2C(=O)NC3(CC(C)(C)C3)C(=O)N(C)[C@@H](C3CCCC3)C(=O)N(C)[C@H](C(=O)N(C)C)CC(=O)N(C)[C@H]3CCCCc4ccc(cc4)C[C@@H](C(=O)N(C)CC(=O)N[C@@H](CCc4ccc(C(F)(F)F)c(OC)c4)C(=O)N2C1)N1CC/C=C\\C[C@@H](C1=O)N(C)C(=O)CN(C)C(=O)[C@H]([C@@H](C)CC)NC3=O [PP3077]", "human lung cancer strain NCI-H441", 9.10),
]

What pIC50 value was documented for this molecule, CC[C@H](C)[C@@H]1NC(=O)[C@@H]2CCCCc3ccc(cc3)C[C@@H](C(=O)N(C)CC(=O)N[C@@H](CCc3ccc(C(F)(F)F)c(OC)c3)C(=O)N3C[C@H](OC4CCC4)C[C@H]3C(=O)NC3(CC(C)(C)C3)C(=O)N(C)[C@@H](C3CCCC3)C(=O)N(C)[C@H](C(=O)N(C)CC)CC(=O)N2C)N2CC/C=C\C[C@@H](C2=O)N(C)C(=O)CN(C)C1=O [PP3079] ?
8.74
